Where do these numbers come from? They come from ChEMBL document CHEMBL5346937.

Tested on: WI-38
Procedure Text: Cytotoxicity against human WI-38 cells assessed as reduction in cell viability incubated for 72 hrs by MTT assay
Assay type: toxicity, cell-based
Experimental Conditions: wi-38, 72 h
yes (1) if CC50 is below 30 µM. no (0) if not; exact matches included in no (0).

Known results for molecules:
[
  {
    "Chemical Smiles": "Cc1ncc(COP(=O)([O-])O)c(/C=N/c2ccccc2-c2noc(-c3ccccc3O)n2)c1O.[Na+]",
    "Class Assignment": "yes (1)"
  },
  {
    "Chemical Smiles": "O=C(O)CN1C(=O)COc2ccccc2-c2nc(no2)-c2ccccc21",
    "Class Assignment": "yes (1)"
  },
  {
    "Chemical Smiles": "Nc1ccccc1-c1noc(-c2ccccc2N)n1",
    "Class Assignment": "no (0)"
  },
  {
    "Chemical Smiles": "CCOC(=O)CN1C(=O)COc2ccccc2-c2nc(no2)-c2ccccc21",
    "Class Assignment": "no (0)"
  },
  {
    "Chemical Smiles": "Nc1ccccc1-c1nc(-c2ccc(C(F)(F)F)cc2)no1",
    "Class Assignment": "yes (1)"
  }
]

Now examine the next entry.
Regarding Cc1ncc(COP(=O)([O-])O)c(/C=N/c2ccccc2-c2noc(-c3ccccc3)n2)c1O.[Na+] , kindly confirm whether its CC50 is beneath 30 µM.
yes (1)

====

Assay System: Replicase polyprotein 1ab (Severe acute respiratory syndrome coronavirus 2)
Procedure Text: Inhibition of SARS-CoV-2 PLpro at 10 uM using Arg-Leu-Arg-Gly-Gly-AMC as substrate preincubated for 5 mins followed by substrate addition measured after 6 mins by fluorescence based assay relative to control
Experimental Conditions: time 11.0 min
Assignment: determine reported inhibition for the given molecules.

Below: 10 molecules and their reported inhibition.
[
  {
    "Chemical Smiles": "CCOC(=O)CN1C(=O)COc2ccccc2-c2nc(no2)-c2ccccc21",
    "inhibition": "18.1%"
  },
  {
    "Chemical Smiles": "O=CNc1ccccc1-c1noc(-c2ccccc2O)n1",
    "inhibition": "35.1%"
  },
  {
    "Chemical Smiles": "Nc1ccccc1-c1nc(-c2ccc(C(F)(F)F)cc2)no1",
    "inhibition": "5%"
  },
  {
    "Chemical Smiles": "Nc1ccccc1-c1nc(-c2ccccc2)no1",
    "inhibition": "21.1%"
  },
  {
    "Chemical Smiles": "Nc1ccccc1-c1noc(-c2ccccc2N)n1",
    "inhibition": "16.2%"
  },
  {
    "Chemical Smiles": "CC(=O)Oc1ccccc1-c1nc(-c2ccccc2N(C(C)=O)C(C)=O)no1",
    "inhibition": "17.1%"
  },
  {
    "Chemical Smiles": "Nc1ccccc1-c1noc(-c2ccccc2)n1",
    "inhibition": "20.8%"
  },
  {
    "Chemical Smiles": "[N-]=[N+]=Nc1ccccc1-c1noc(-c2ccccc2O)n1",
    "inhibition": "1.1%"
  },
  {
    "Chemical Smiles": "Nc1ccccc1-c1noc(-c2ccccc2O)n1",
    "inhibition": "13.6%"
  },
  {
    "Chemical Smiles": "Nc1ccccc1-c1noc(-c2ccncc2)n1",
    "inhibition": "58.6%"
  }
]

For each listed entry, give its inhibition.
1. O=C(O)CN1C(=O)COc2ccccc2-c2nc(no2)-c2ccccc21
2. Cc1ncc(COP(=O)([O-])O)c(/C=N/c2ccccc2-c2noc(-c3ccccc3)n2)c1O.[Na+]
3. Cc1ncc(COP(=O)([O-])O)c(/C=N/c2ccccc2-c2noc(-c3ccccc3O)n2)c1O.[Na+]
4. Oc1ccccc1-c1noc(-c2ccccc2O)n1

5.9%
22.5%
13.9%
11.7%

====

Tested on: WI-38
Procedure Text: Cytotoxicity against human WI-38 cells assessed as reduction in cell viability incubated for 72 hrs by MTT assay
Type: toxicity, cell-based
Experimental Conditions: wi-38, 72 h
Metric Name: EC100 (µM)
One number for each entry, in µM.

[
  {
    "Chemical Smiles": "Cc1ncc(COP(=O)([O-])O)c(/C=N/c2ccccc2-c2noc(-c3ccccc3O)n2)c1O.[Na+]",
    "EC100 / µM": 4.956
  },
  {
    "Chemical Smiles": "Nc1ccccc1-c1noc(-c2ccccc2)n1",
    "EC100 / µM": 7.299
  },
  {
    "Chemical Smiles": "Nc1ccccc1-c1noc(-c2ccccc2N)n1",
    "EC100 / µM": 9.738
  }
]

For each listed entry, give its EC100.
1. Nc1ccccc1-c1noc(-c2ccccc2O)n1
2. Oc1ccccc1-c1noc(-c2ccccc2O)n1
3. CCOC(=O)CN1C(=O)COc2ccccc2-c2nc(no2)-c2ccccc21
4. Nc1ccccc1-c1noc(-c2ccncc2)n1
5. Nc1ccccc1-c1nc(-c2ccccc2)no1
6. O=CNc1ccccc1-c1noc(-c2ccccc2O)n1
7. CC(=O)Oc1ccccc1-c1nc(-c2ccccc2N(C(C)=O)C(C)=O)no1
8. Cc1ncc(COP(=O)([O-])O)c(/C=N/c2ccccc2-c2noc(-c3ccccc3)n2)c1O.[Na+]

[6.474, 5.208, 6.313, 10.356, 19.059, 8.116, 0.641, 2.03]

For each listed entry, give its EC100.
1. [N-]=[N+]=Nc1ccccc1-c1noc(-c2ccccc2O)n1
2. O=C(O)CN1C(=O)COc2ccccc2-c2nc(no2)-c2ccccc21
3. Nc1ccccc1-c1nc(-c2ccc(C(F)(F)F)cc2)no1

1. 7.701
2. 5.727
3. 1.156

====

Assay System: Spike glycoprotein/Angiotensin-converting enzyme 2 (Severe acute respiratory syndrome coronavirus 2) (UniProt Q9BYF1+P0DTC2)
Procedure Text: Inhibition of SARS-CoV-2 spike protein RBD- human ACE2 interaction at 10 uM pretreated with SARS-CoV-2 spike RBD for 2 hrs followed by ACE2 addition and measured after 2 hrs by […] based ELISA analysis relative to control
Assay type: protein assay
Experimental Conditions: time 4.0 hrs
Respond with class 1 for inhibition values of 40% and above, class 0 for values below.

Known results for compounds:
[
  {
    "Chemical Smiles": "Nc1ccccc1-c1noc(-c2ccncc2)n1",
    "Class Assignment": "class 1"
  },
  {
    "Chemical Smiles": "Cc1ncc(COP(=O)([O-])O)c(/C=N/c2ccccc2-c2noc(-c3ccccc3O)n2)c1O.[Na+]",
    "Class Assignment": "class 0"
  },
  {
    "Chemical Smiles": "O=CNc1ccccc1-c1noc(-c2ccccc2O)n1",
    "Class Assignment": "class 1"
  },
  {
    "Chemical Smiles": "Nc1ccccc1-c1noc(-c2ccccc2)n1",
    "Class Assignment": "class 0"
  },
  {
    "Chemical Smiles": "Nc1ccccc1-c1nc(-c2ccccc2)no1",
    "Class Assignment": "class 0"
  }
]

I'd appreciate it if you could say whether Nc1ccccc1-c1noc(-c2ccccc2N)n1 has inhibition at least equal to 40%.
class 0

I'd appreciate it if you could say whether CCOC(=O)CN1C(=O)COc2ccccc2-c2nc(no2)-c2ccccc21 has inhibition at least equal to 40%.
class 0

I'd appreciate it if you could say whether O=C(O)CN1C(=O)COc2ccccc2-c2nc(no2)-c2ccccc21 has inhibition at least equal to 40%.
class 0

I'd appreciate it if you could say whether Cc1ncc(COP(=O)([O-])O)c(/C=N/c2ccccc2-c2noc(-c3ccccc3)n2)c1O.[Na+] has inhibition at least equal to 40%.
class 0

I'd appreciate it if you could say whether CC(=O)Oc1ccccc1-c1nc(-c2ccccc2N(C(C)=O)C(C)=O)no1 has inhibition at least equal to 40%.
class 1

I'd appreciate it if you could say whether Nc1ccccc1-c1noc(-c2ccccc2O)n1 has inhibition at least equal to 40%.
class 0

====

Assignment: determine reported CC50 for the given compounds.
Test system: WI-38
Procedure Text: Cytotoxicity against human WI-38 cells assessed as reduction in cell viability incubated for 72 hrs by MTT assay
Assay type: toxicity, cell-based
Experimental Conditions: wi-38, 72 h
Numbers only, in µM.

Below: 3 compounds and their reported CC50.
[
  {
    "Chemical Smiles": "Nc1ccccc1-c1noc(-c2ccccc2O)n1",
    "Metric Name": "CC50",
    "Unit Descriptor": "µM",
    "Measured": 32.4
  },
  {
    "Chemical Smiles": "Nc1ccccc1-c1noc(-c2ccncc2)n1",
    "Metric Name": "CC50",
    "Unit Descriptor": "µM",
    "Measured": 51.8
  },
  {
    "Chemical Smiles": "O=CNc1ccccc1-c1noc(-c2ccccc2O)n1",
    "Metric Name": "CC50",
    "Unit Descriptor": "µM",
    "Measured": 40.6
  }
]

For each listed entry, give its CC50.
1. [N-]=[N+]=Nc1ccccc1-c1noc(-c2ccccc2O)n1
2. Nc1ccccc1-c1nc(-c2ccccc2)no1
3. Oc1ccccc1-c1noc(-c2ccccc2O)n1

[38.5, 57.2, 26]
